endpoint: melting point

Past entries and their recorded results:
smiles_data	melting point
O=C(CBr)Nc1nc(C(=O)O)c(-c2ccccc2)s1	208 to 210 °C
COC(=O)c1nc(N)sc1-c1ccccc1	218 to 221 °C
Nc1nc(C(=O)O)c(Cc2ccccc2)s1	300 to 302 °C
COC(=O)c1nc(NC(=O)CBr)sc1C	220 to 222 °C
COC(=O)c1nc(NC(=O)CBr)sc1Cc1ccccc1	218 to 220 °C

Exercise: Look up melting point for this compound: `COC(=O)c1nc(NC(=O)CBr)sc1-c1ccccc1`
Solution: 218 to 220 °C

Exercise: Given `COC(=O)c1nc(N)sc1C` , state its recorded melting point.
Solution: 165 to 168 °C

Sourced from paper PMC2680598
